Give CC50 at 48 h for every item shown.
Assay: Cytotoxicity against african green monkey Vero cells after 2 days by resazurin assay
Assay type: cell-based
Settings: chlorocebus sabaeus
Give bare numbers, in µM.

Cc1ccc(S(=O)(=O)Nc2ccccc2)cc1 :: 221

# batch size: 5; output CC50 at 48 h per entry
1. O=C(/C=C/c1cccc(NC(=O)Nc2ccccc2)c1)C[C@@H]1OC[C@@H](O)[C@H](O)[C@H]1O
2. COc1ccc(NC(=O)Nc2cccc(/C=C/C(=O)C[C@@H]3O[C@H](CO)[C@@H](O)[C@H](O)[C@H]3O)c2)c([N+](=O)[O-])c1
3. CC(=O)OC[C@H]1O[C@@H](CC(=O)/C=C/c2ccc(NC(=O)Nc3ccccc3)cc2)[C@H](OC(C)=O)[C@@H](OC(C)=O)[C@@H]1OC(C)=O
4. CCOC(=O)/C=C/c1cccc(NC(=S)Nc2ccccc2)c1
5. CC(=O)OC[C@H]1O[C@@H](CC(=O)/C=C/c2cccc(NC(=S)Nc3ccccc3)c2)[C@H](OC(C)=O)[C@@H](OC(C)=O)[C@@H]1OC(C)=O

[309, 709, 820, 279, 337]

# batch size: 2; output CC50 at 48 h per entry
1. CC(=O)OC[C@H]1O[C@@H](CC(=O)/C=C/c2cccc(NC(=O)Nc3ccccc3)c2)[C@@H](OC(C)=O)[C@@H](OC(C)=O)[C@@H]1OC(C)=O
2. COc1cc([N+](=O)[O-])ccc1NC(=S)Nc1cccc(/C=C/C(=O)C[C@@H]2O[C@H](COC(C)=O)[C@@H](OC(C)=O)[C@H](OC(C)=O)[C@H]2OC(C)=O)c1

[102, 559]
